- Test system: SF-268
- Method summary: NCI tumour cell line growth inhibition, 48 h
The source made the active and inactive calls. Cut-off read from the data, not from the text of the source: active = GI50 up to about 1.1 µM and inactive = higher.
// allowed return values: label 1 = active, label 0 = inactive

Please state the recorded outcome for this compound: Cc1ccc(C2=Nc3ccccc3NC(=O)C2)cc1
label 0

What is the recorded call for this compound in the test? COc1cc([C@@H]2c3cc4c(cc3C[C@H]3COC(=O)[C@@H]32)OCO4)cc(OC)c1OC
label 1

State the result this test recorded for CC1(C)OC[C@@]2([C@@H]3CC[C@@H](C3)C2(C)C)N1O .
label 0

I would be grateful if you could indicate the recorded call for CC(C)CCNC(=O)c1ccc(CNC(=O)/C=C/c2csc(-c3ccccc3)n2)cc1 .
label 0

Called result for Cc1cc(/N=C/c2c(CO)cnc(C)c2O)c(/N=C/c2c(CO)cnc(C)c2O)cc1C
label 0

* * *

- System: 786-0
- Method summary: NCI tumour cell line growth inhibition, 48 h
The source made the active and inactive calls. Rule as the data show it: active = GI50 up to about 1.1 µM and inactive = higher.
Recorded GI50, one value per entry.

Reference set (5 entries):
Fill in GI50 for record C=CC/C(C(=O)OC)=C(/C(=O)OC)N(CCC)CCC
> 100 µM (inactive)

Using known records, supply GI50 for C=CCN1C(=O)N/C(=C\c2ccc(Cl)cc2)C1=O
> 100 µM (inactive)

Indicate the recorded GI50 value for this compound: COc1cc2c(cc1O)CCN(C)[C@H]2Cc1ccc(Oc2c(O)c(OC)cc3c2C[C@H]2c4c(c(OC)c(OC)c(OC)c4-3)CCN2C)cc1 [THALIFABERIDINE]
4.53 µM (inactive)

Supply measured GI50 of CN(CCCn1ccnc1[N+](=O)[O-])CCCn1ccnc1[N+](=O)[O-] in your reply.
> 100 µM (inactive)

Could you please provide reported GI50 for CC(N)Cc1ccc(F)cc1 (centres undefined) ? Thanks!
> 100 µM (inactive)

---
Identify measured GI50 corresponding to CC(C#N)NCc1ccc(C(C)NC(C)C#N)cc1 (centres undefined)
> 100 µM (inactive)

Give the measured GI50 for O=C1C=C2CO[C@H]3OC[C@H](O)[C@@H]1[C@@H]23
35 µM (inactive)

Given the compound O=C(CSCC(=O)N/N=C\c1ccccc1F)N/N=C\c1ccccc1F , write its reported GI50.
> 100 µM (inactive)

Find the measured GI50 of N#CC1(Cc2ccccc2)CCCCN1C(=O)c1ccccc1 (centres undefined) and report it.
> 100 µM (inactive)

Return reported GI50. Input compound: COc1ccc(/C=C/C(=O)/C=C/c2ccc(OC)cc2OC)c(OC)c1
5.81 µM (inactive)

* * *

- Test system: 786-0
- Method summary: NCI tumour cell line growth inhibition, 48 h
Activity calls are given as the source filed them. Cut-off read from the data, not from the text of the source: active = GI50 up to about 1.1 µM and inactive = higher.
Listing: GI50 of selected compounds

Entry CN(CCCNC(=O)c1c2ccc3ccccc3c2nn1C)CCCNC(=O)c1c2ccc3ccccc3c2nn1C needs its GI50 filled in; supply it.
11.6 µM (inactive)

Note down GI50 recorded for CCOC(=O)c1nnsc1NN=C(C)C
> 100 µM (inactive)

Now look at this one.
Please give the documented GI50 of COC(=O)C1=C(O)C(C(=O)OC)[C@]2(O)[C@H](C(=O)OC)[C@H]1C[C@@H](c1ccc(C(F)(F)F)cc1)[C@H]2C(=O)OC (stereo partly drawn)
3.44 µM (inactive)

* * *

- System: HOP-62
- Method summary: NCI tumour cell line growth inhibition, 48 h
Activity calls are given as the source filed them. Cut-off read from the data, not from the text of the source: active = GI50 up to about 1.1 µM and inactive = higher.
Parameter GI50: see the listing below.

Example compounds with recorded GI50:
Complete the entry with GI50 for c1ccc2[nH]c(CNc3ccc(C4C[Se]N=N4)cc3)nc2c1 (stereo not given)
> 100 µM (inactive)

Fill in GI50 for record CCOC(=O)c1sc2nc(SC)nc3c2c1N=CN3c1ccc(Br)cc1
21.7 µM (inactive)

Indicate its recorded GI50; the compound in question is N#C/C(=C\c1cccc(Br)c1)c1nc2ccccc2c(=O)[nH]1
21.9 µM (inactive)

Supply measured GI50 of CC1(C)OC[C@@]2([C@@H]3CC[C@@H](C3)C2(C)C)N1O in your reply.
> 100 µM (inactive)

Check the records and state GI50 for Cc1ncc(COP(=O)(O)O)c(/C=C2\SC(=S)NC2=O)c1O
> 100 µM (inactive)

Others:
For C/C=C1/CN2CCC34C5=CC(=O)C(c6cc7c(cc6OC)N(C)C6=C(C(=O)OC)CC8(CC)CCCN9CCC67C98)=CC5=NC23CCC1C4C(=O)OC (stereo not given) , write its GI50.
16.8 µM (inactive)

Read off the recorded GI50 for O=c1[nH]nc2c3n[nH]c(=O)n3c3ccccc3n12
> 100 µM (inactive)

Please report the measured GI50 for CN(CCCNC(=O)c1c2ccc3ccccc3c2nn1C)CCCNC(=O)c1c2ccc3ccccc3c2nn1C
14.8 µM (inactive)

Write down GI50 measured for item OC12CC/C(=N/OCc3ccccc3)CC1c1ccccc12 (stereo not given)
> 100 µM (inactive)

Respond only with GI50 recorded for C=CC/C(C(=O)OC)=C(/C(=O)OC)N(CCC)CCC
> 100 µM (inactive)
